Listing of entries alongside the reported GI50.
- System: HOP-62
- EXPERIMENTAL DETAILS: NCI tumour cell line growth inhibition, 48 h
Calls of active or inactive are those of the source. Cut-off read from the data, not from the text of the source: active = GI50 up to about 1.1 µM and inactive = higher.

[
  {
    "COMPOUND": "COc1cc(/C=N/c2nncs2)ccc1O",
    "GI50": "> 100 µM (inactive)"
  },
  {
    "COMPOUND": "c1ccc2c(c1)c1c3n2-c2cc(on2)C3CCC1 (stereo not given)",
    "GI50": "> 100 µM (inactive)"
  },
  {
    "COMPOUND": "Cc1ccc(S(=O)(=O)NC(=O)NC(Cc2ccccc2)C(=O)O)cc1 (stereo not given)",
    "GI50": "> 100 µM (inactive)"
  },
  {
    "COMPOUND": "COC(=O)C(Cc1nc2ccccc2nc1O)C(=O)C(=O)Nc1cc(C(F)(F)F)ccc1Cl (stereo not given)",
    "GI50": "17.4 µM (inactive)"
  },
  {
    "COMPOUND": "Brc1ccc(C2CC(c3cccc4ccccc34)=Nc3ccccc3S2)cc1 (stereo not given)",
    "GI50": "> 100 µM (inactive)"
  },
  {
    "COMPOUND": "CC(C)c1ccc(C(c2ccc(OCC(=O)O)cc2)c2ccc(C(C)C)cc(=O)c2O)c(O)c(=O)c1",
    "GI50": "2.79 µM (inactive)"
  },
  {
    "COMPOUND": "COC(=O)N/N=C(/Cc1occc(=O)c1O)C(=O)Nc1ccc([N+](=O)[O-])cc1[N+](=O)[O-]",
    "GI50": "> 100 µM (inactive)"
  },
  {
    "COMPOUND": "O=C(c1ccccc1)c1ccc2nc3n(c2c1)C(c1c(F)cccc1F)SC3 (stereo not given)",
    "GI50": "8.81 µM (inactive)"
  }
]

Exercise: Requested field: GI50. Item: CC(=O)OC(C(=O)NNC(=O)OC(C)(C)C)c1ccccc1 (stereo not given)
Key: > 100 µM (inactive)

Exercise: Requested field: GI50. Item: CN1CCN(c2ccc3nc(C4=C(O)C(=O)c5c(nc(CCl)n5C)C4=O)[nH]c3n2)CC1
Key: 9.51 µM (inactive)
